Quick reference: residual activity of the listed items.
Target: UniProt:Q15375
Sequence (Q15375 whole entry, looked up): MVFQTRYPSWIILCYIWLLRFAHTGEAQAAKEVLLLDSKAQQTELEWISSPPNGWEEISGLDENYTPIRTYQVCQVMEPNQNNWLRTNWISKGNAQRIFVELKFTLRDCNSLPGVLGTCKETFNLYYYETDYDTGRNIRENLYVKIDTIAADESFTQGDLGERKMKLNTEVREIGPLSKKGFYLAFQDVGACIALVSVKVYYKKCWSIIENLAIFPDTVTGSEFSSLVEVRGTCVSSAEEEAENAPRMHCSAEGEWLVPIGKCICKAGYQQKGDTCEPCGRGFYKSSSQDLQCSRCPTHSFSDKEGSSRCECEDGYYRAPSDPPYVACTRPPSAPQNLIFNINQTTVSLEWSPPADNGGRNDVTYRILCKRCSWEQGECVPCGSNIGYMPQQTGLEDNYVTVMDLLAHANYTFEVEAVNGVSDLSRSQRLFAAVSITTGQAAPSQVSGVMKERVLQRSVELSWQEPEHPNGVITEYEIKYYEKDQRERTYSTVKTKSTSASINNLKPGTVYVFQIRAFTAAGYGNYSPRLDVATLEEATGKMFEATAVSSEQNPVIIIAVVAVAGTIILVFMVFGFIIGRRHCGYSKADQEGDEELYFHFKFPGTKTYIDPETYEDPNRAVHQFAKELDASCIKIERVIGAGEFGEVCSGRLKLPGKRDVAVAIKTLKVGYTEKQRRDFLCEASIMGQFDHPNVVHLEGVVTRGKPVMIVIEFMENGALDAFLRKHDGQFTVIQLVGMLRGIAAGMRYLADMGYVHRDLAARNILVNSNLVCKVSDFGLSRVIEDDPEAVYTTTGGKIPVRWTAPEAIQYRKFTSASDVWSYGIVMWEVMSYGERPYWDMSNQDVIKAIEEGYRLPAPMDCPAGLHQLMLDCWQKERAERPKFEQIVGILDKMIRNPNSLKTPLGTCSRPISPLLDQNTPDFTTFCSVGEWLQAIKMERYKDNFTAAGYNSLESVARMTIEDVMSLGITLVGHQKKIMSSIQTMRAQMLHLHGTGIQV
Assay: radiometric filter-binding kinase assay, Kinase HotSpot
Conditions: compound 0.5 µM; ATP 10 µM

Study these solved cases before continuing.
mol.smiles: Oc1cccc(-c2nc(N3CCOCC3)c3oc4ncccc4c3n2)c1
target.system: UniProt:Q15375
result: 93.9%

mol.smiles: CCCC(=O)Oc1ccc2[nH]c(C(=O)c3cc4ccccc4[nH]3)cc2c1
target.system: UniProt:Q15375
result: 97.2%

mol.smiles: O=C(Nc1cccc(Nc2nccc(Nc3cccc(C(F)(F)F)c3)n2)c1)C1CC1
target.system: UniProt:Q15375
result: 112%

mol.smiles: O=c1cc(N2CCOCC2)oc2c1ccc1ccccc12
target.system: UniProt:Q15375
result: 98.6%

mol.smiles: O=C1Nc2ccc(Cl)cc2/C1=C/c1cc(Cl)c(O)c(Cl)c1
target.system: UniProt:Q15375
result: 97.5%

Report measured residual activity; entry is `CC#CC(=O)Nc1cc2c(Nc3ccc(F)c(Cl)c3)ncnc2cn1`
91.3%

Give me measured residual activity, please, for this compound: `Nc1cccc(-c2cc3c(Oc4cccc(O)c4)ncnc3[nH]2)c1`
77.2%

Give the measured residual activity for `Cc1[nH]c(/C=C2\C(=O)Nc3ccc(S(=O)(=O)N(C)c4cccc(Cl)c4)cc32)c(C)c1C(=O)N1CCN(C)CC1`
85.8%

Identify measured residual activity corresponding to `c1ccc(-c2n[nH]c3c2oc2ccccc23)cc1`
104%

Using the record for `Cc1ccc(Nc2nccc(N(C)c3ccc4c(C)n(C)nc4c3)n2)cc1S(N)(=O)=O` , state its measured residual activity.
94.1%

Supply residual activity value. Item: `CC(=O)c1ccc(N2CCOCC2)cc1O`
95.5%

====

Target: TNK2 (human) (UniProt Q07912)
Experiment: radiometric filter-binding kinase assay, Kinase HotSpot
Conditions: compound 0.5 µM; ATP 10 µM
measured.metric: residual activity (%)
Answer in %, number only, no unit symbol.

compound: CCN(CC)CCNC(=O)c1c(C)[nH]c(/C=C2\C(=O)Nc3ccc(F)cc32)c1C
residual activity [%]: 64.1
//
compound: Oc1cccc(-c2nc(N3CCOCC3)c3oc4ncccc4c3n2)c1
residual activity [%]: 89.6
//
compound: CC[n+]1c(/C=C/N(C)c2ccccc2)n(-c2ccccc2)c2ccc(-c3nc4ccccc4s3)cc21
residual activity [%]: 98
//
compound: Nc1ccc2ncnc(NCCc3ccc(Oc4ccccc4)cc3)c2c1
residual activity [%]: 102
//
compound: COc1ccc(COc2ccc(Cc3cnc(N)nc3N)cc2OC)cc1
residual activity [%]: 105

# lookup: TNK2 (human) (UniProt Q07912) residual activity, key = `Cc1ccc(NC2=CC(=O)c3sc(C)nc3C2=O)cc1`
94.3

Give residual activity for this entry on TNK2 (human) (UniProt Q07912): `CCN(CC)CCNC(=O)c1c(C)[nH]c(/C=C2\C(=O)Nc3ccc(Cl)cc32)c1C`
22.6

Enter residual activity (test system TNK2 (human) (UniProt Q07912)) for `COc1cc2ncnc(Nc3cccc(Cl)c3)c2cc1OC`
28.6

Write down the reported residual activity (system: TNK2 (human) (UniProt Q07912)) of `O=C1NC(=O)/C(=C/c2ccc3c(c2)OC(F)(F)O3)S1`
93.3

====

Target: EPHB2 (human) (UniProt P29323)
Sequence (P29323 whole entry, looked up): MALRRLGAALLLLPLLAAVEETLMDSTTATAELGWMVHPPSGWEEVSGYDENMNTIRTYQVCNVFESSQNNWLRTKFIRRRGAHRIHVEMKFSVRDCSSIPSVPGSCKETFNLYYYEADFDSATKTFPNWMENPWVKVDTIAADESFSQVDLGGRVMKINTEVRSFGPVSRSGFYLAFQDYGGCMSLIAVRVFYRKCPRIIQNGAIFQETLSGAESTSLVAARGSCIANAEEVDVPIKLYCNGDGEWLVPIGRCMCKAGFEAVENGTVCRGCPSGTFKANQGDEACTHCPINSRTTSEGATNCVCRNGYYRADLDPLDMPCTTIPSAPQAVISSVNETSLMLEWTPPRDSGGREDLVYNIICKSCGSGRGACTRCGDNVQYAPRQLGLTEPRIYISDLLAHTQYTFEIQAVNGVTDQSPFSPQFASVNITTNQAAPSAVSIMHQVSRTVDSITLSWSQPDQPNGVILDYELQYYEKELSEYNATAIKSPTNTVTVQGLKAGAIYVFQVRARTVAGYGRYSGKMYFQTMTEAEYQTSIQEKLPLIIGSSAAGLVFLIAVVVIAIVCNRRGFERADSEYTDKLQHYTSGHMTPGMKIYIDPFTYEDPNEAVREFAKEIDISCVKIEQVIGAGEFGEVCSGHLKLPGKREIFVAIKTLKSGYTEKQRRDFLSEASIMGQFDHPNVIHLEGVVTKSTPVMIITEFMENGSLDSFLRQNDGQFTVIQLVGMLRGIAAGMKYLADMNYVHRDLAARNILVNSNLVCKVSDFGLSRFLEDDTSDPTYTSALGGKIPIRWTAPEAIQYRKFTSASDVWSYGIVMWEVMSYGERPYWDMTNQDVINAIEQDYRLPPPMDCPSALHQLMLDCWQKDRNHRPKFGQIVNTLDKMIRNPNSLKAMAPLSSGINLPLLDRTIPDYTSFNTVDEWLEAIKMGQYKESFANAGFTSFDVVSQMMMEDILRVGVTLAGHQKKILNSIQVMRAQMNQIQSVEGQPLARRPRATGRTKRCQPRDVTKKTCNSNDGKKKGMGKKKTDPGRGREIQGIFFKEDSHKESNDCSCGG
Assay: radiometric filter-binding kinase assay, Kinase HotSpot
Conditions: compound 0.5 µM; ATP 10 µM
Measured residual activity of individual entries

The following compounds have reported results that may help.
mol.smiles: CNc1cc2c(Nc3cccc(Br)c3)ncnc2cn1
result: 91.2%

mol.smiles: Cc1ccc(Nc2nccc(N(C)c3ccc4c(C)n(C)nc4c3)n2)cc1S(N)(=O)=O
result: 91.9%

mol.smiles: COc1ccc(COc2ccc(Cc3cnc(N)nc3N)cc2OC)cc1
result: 87.4%

Annotate the compound `Nc1ncnc2c1c(-c1ccc(Oc3ccccc3)cc1)cn2C1CCCC1` with its measured residual activity.
90.5%

Tell us which residual activity value is on record for `Oc1cccc(-c2nc(N3CCOCC3)c3oc4ncccc4c3n2)c1`
88.6%

Item `Nc1ncnc2[nH]nc(Nc3ccc(F)cc3)c12` : provide residual activity
91.6%

Quickly give me recorded residual activity for `O=C1Nc2ccc(Cl)cc2/C1=C/c1cc(Cl)c(O)c(Cl)c1`
90.9%

====

Target: GSG2 (human)
Test: radiometric filter-binding kinase assay, Kinase HotSpot
Settings: compound 0.5 µM; ATP 10 µM
Readings of residual activity for the listed compounds
// return numeric value only (unit: %, not printed)

Example results:
compound: CC(C)N(CCC(=O)c1ccc2ccccc2c1)Cc1ccccc1
target.system: GSG2 (human)
residual activity / %: 95.6
--
compound: CNC(=O)c1cc(Oc2ccc(NC(=O)Nc3ccc(Cl)c(C(F)(F)F)c3)cc2)ccn1
target.system: GSG2 (human)
residual activity / %: 99.3
--
compound: O=c1cc(N2CCOCC2)oc2c1ccc1ccccc12
target.system: GSG2 (human)
residual activity / %: 85.6
--
compound: CCCC(=O)Oc1ccc2[nH]c(C(=O)c3cc4ccccc4[nH]3)cc2c1
target.system: GSG2 (human)
residual activity / %: 99.2

Now look at this entry.
For the compound CO[C@H]1CC2CC[C@@H](C)[C@@](O)(O2)C(=O)C(=O)N2CCCC[C@H]2C(=O)OC([C@H](C)C[C@@H]2CC[C@@H](O)[C@H](OC)C2)CC(=O)[C@H](C)/C=C(\C)[C@@H](O)[C@@H](OC)C(=O)[C@H](C)C[C@H](C)/C=C/C=C/C=C/1C (stereo not given in full) , report residual activity.
103

====

This section presents molecules with their documented residual activity values.
Biological target: CDK9 CCNK (human) (UniProt O75909+P50750)
Sequence (O75909 whole entry, looked up): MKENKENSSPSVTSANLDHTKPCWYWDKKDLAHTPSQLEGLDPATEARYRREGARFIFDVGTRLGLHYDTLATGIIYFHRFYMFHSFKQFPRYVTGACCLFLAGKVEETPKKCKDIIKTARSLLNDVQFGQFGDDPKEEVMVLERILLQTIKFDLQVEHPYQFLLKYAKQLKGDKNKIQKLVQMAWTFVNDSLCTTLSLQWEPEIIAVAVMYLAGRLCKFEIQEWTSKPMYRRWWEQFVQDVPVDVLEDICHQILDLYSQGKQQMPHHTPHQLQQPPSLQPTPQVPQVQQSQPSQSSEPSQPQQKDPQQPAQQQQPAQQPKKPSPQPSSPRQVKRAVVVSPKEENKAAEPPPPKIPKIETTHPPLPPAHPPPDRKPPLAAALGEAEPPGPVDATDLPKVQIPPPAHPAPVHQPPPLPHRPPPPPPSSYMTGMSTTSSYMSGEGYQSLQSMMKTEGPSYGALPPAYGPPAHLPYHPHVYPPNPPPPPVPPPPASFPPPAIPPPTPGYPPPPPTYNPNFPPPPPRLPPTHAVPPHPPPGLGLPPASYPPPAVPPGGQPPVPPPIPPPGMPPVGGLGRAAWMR
Sequence (P50750 whole entry, looked up): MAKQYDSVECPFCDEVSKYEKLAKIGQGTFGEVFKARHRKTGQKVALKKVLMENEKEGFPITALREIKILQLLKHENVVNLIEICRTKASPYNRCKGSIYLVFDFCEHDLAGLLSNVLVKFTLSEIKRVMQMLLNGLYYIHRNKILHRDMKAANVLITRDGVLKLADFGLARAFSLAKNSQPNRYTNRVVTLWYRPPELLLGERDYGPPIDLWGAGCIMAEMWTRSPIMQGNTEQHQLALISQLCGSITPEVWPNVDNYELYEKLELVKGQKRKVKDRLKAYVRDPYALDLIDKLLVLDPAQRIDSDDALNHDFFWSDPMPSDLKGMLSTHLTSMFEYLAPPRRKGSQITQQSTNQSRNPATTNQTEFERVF
Experiment: radiometric filter-binding kinase assay, Kinase HotSpot
Conditions: compound 0.5 µM; ATP 10 µM
Express the result in % but write the number alone.

Check out these entries, answers already filled in.
mol.smiles: O=C1Nc2ccc(Cl)cc2/C1=C/c1cc(Cl)c(O)c(Cl)c1
unit.name: %
result.number: 79.4
--
mol.smiles: O=C1NC(=O)c2c1c1c3ccccc3n3c1c1c2c2ccccc2n1C1CCC3O1
unit.name: %
result.number: 15.8
--
mol.smiles: Nc1ccc2ncnc(NCCc3ccc(Oc4ccccc4)cc3)c2c1
unit.name: %
result.number: 104
--
mol.smiles: O=C1NC(=O)C(c2cn(CCCn3ccnc3)c3ccccc23)=C1Nc1ccccc1
unit.name: %
result.number: 64.6
--
mol.smiles: CNc1cc2c(Nc3cccc(Br)c3)ncnc2cn1
unit.name: %
result.number: 105
--
mol.smiles: c1ccc(-c2n[nH]cc2-c2ccnc3ccccc23)nc1
unit.name: %
result.number: 98.7
--
mol.smiles: CCCC(=O)Oc1ccc2[nH]c(C(=O)c3cc4ccccc4[nH]3)cc2c1
unit.name: %
result.number: 104
--
mol.smiles: Cc1ccc(S(=O)(=O)/C=C/C#N)cc1
unit.name: %
result.number: 112

Okay, now this molecule:
For `Cc1nc(Nc2ncc(C(=O)Nc3c(C)cccc3Cl)s2)cc(N2CCN(CCO)CC2)n1` , write its residual activity.
104

====

Molecular target: TAOK3 (human) (UniProt Q9H2K8)
Sequence (Q9H2K8 whole entry, looked up): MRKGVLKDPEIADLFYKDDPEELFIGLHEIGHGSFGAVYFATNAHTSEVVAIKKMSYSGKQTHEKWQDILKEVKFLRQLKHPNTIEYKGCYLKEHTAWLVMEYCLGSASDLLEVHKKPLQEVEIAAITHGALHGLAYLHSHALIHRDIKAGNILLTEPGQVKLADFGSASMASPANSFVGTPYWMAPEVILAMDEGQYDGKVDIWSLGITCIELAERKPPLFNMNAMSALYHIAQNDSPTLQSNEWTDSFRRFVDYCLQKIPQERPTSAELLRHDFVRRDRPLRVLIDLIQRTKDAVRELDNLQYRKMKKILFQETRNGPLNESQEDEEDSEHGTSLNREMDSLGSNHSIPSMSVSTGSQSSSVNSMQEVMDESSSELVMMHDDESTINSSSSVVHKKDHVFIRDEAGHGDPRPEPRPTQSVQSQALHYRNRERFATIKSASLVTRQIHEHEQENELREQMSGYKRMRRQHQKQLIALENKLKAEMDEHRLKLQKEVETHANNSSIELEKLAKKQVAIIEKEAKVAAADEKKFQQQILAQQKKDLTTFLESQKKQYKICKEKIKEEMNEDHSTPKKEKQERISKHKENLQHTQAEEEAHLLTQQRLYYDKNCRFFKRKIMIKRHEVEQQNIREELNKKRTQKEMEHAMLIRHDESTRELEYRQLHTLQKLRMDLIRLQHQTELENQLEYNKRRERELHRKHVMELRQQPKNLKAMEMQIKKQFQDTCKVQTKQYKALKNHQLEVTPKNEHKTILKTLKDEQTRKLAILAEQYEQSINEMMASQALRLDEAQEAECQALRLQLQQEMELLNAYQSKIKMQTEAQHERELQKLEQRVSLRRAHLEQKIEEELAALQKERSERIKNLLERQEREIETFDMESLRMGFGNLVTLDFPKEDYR
Assay: radiometric filter-binding kinase assay, Kinase HotSpot
Settings: compound 0.5 µM; ATP 10 µM
measured.metric: residual activity (%)
Give your result in % as a bare value.

Worked cases, residual activity given:
molecule: Cc1ccc(S(=O)(=O)/C=C/C#N)cc1
measured.metric: residual activity
result.number: 101
--
molecule: O=C(Nc1cccc(Nc2nccc(Nc3cccc(C(F)(F)F)c3)n2)c1)C1CC1
measured.metric: residual activity
result.number: 110
--
molecule: Nc1cccc(-c2cc3c(Oc4cccc(O)c4)ncnc3[nH]2)c1
measured.metric: residual activity
result.number: 93.5
--
molecule: O=C1NC(=O)c2c1c1c3ccccc3n3c1c1c2c2ccccc2n1C1CCC3O1
measured.metric: residual activity
result.number: 24.5
--
molecule: O=C1NC(=O)/C(=C/c2ccc3c(c2)OC(F)(F)O3)S1
measured.metric: residual activity
result.number: 84.7

Here's the next entry for you.
Recall the reported residual activity of `c1ccc(-c2n[nH]cc2-c2ccnc3ccccc23)nc1` when tested on TAOK3 (human) (UniProt Q9H2K8).
92.8

====

Recorded residual activity values for a group of molecules are listed next.
Molecular target: CSNK1E (human) (UniProt P49674)
Sequence (P49674 whole entry, looked up): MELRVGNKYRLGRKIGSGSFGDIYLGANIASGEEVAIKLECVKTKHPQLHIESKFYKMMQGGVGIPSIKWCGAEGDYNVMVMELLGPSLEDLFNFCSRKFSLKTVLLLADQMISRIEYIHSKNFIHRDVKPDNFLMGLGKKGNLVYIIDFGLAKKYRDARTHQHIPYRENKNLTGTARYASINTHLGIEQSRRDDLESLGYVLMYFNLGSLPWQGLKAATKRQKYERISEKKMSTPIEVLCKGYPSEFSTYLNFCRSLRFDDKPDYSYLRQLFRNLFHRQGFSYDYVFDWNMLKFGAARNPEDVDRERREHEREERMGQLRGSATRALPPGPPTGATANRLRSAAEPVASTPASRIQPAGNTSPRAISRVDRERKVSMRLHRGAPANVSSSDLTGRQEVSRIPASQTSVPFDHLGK
Experiment: radiometric filter-binding kinase assay, Kinase HotSpot
Conditions: compound 0.5 µM; ATP 10 µM
Answer format: numeric, % implied, no suffix.

Recorded results for 4 molecules are shown here.
mol.smiles: CCOC(=O)c1c(C)[nH]c(/C=C2\C(=O)Nc3ccccc32)c1C
target.system: CSNK1E (human) (UniProt P49674)
result.number: 73.7
//
mol.smiles: Nc1ncnc2c1c(-c1ccc(Oc3ccccc3)cc1)cn2C1CCCC1
target.system: CSNK1E (human) (UniProt P49674)
result.number: 22.3
//
mol.smiles: CCN(CC)C(=O)c1ccc(Nc2nc(OCC3CCCCC3)c3nc[nH]c3n2)cc1
target.system: CSNK1E (human) (UniProt P49674)
result.number: 95.6
//
mol.smiles: CCN(CC)CCNC(=O)c1c(C)[nH]c(/C=C2\C(=O)Nc3ccc(F)cc32)c1C
target.system: CSNK1E (human) (UniProt P49674)
result.number: 46.9

Return residual activity for the following molecule: `O=C1Nc2ccc(Cl)cc2/C1=C/c1cc(Cl)c(O)c(Cl)c1`
66.6

Could you please provide reported residual activity for `CC#CC(=O)Nc1cc2c(Nc3ccc(F)c(Cl)c3)ncnc2cn1` ? Thanks!
93.6
